- Species: Homo sapiens
- test method notes: Inhibition of human recombinant sst receptor at 10 uM by radioligand binding assay
Activity calls are given as the source filed them. The rule behind the calls is not given here.
Possible outcomes: active, inactive

compound string: COc1ccc(-c2ccn(-c3ccc(O)c([N+](=O)[O-])c3)c2-c2ccc(C(N)=O)cc2C)cc1
cat: active
//
compound string: Cc1cc(C(N)=O)ccc1-c1c(CCC(=O)O)ccn1-c1ccc(-n2ccnc2)cc1
cat: inactive
//
compound string: Cc1cc(C(N)=O)ccc1-c1c(-c2ccc(-n3ccnc3)cc2)ccn1CCC(=O)O
cat: inactive
//
compound string: Cc1cc(C(N)=O)ccc1-n1c(CCC(=O)O)ccc1-c1ccc(-n2ccnc2)cc1
cat: inactive
//
compound string: COc1ccc(-c2ccn(-c3ccc(C(=O)O)c(O)c3)c2-c2ccc(C(N)=O)cc2C)cc1
cat: active
